I'd appreciate it if you could supply Ratio EC50 values for the items below.
- Species: Homo sapiens
- methodSummary: Selectivity ratio of EC50 for human dopamine D1 receptor to EC50 for human dopamine D2L receptor
Just the number, please, no unit after it.

According to the records, this molecule CN(C)c1ccc(Cc2ccc3c4c2-c2c(ccc(O)c2O)C[C@H]4N(C)CC3)cc1 displays Ratio EC50 of 4.3

According to the records, this molecule CN1CCc2ccc(Cc3ccc(O)c4ccccc34)c3c2[C@H]1Cc1ccc(O)c(O)c1-3 displays Ratio EC50 of 4.2

According to the records, this molecule CN1CCc2ccc(Cc3ccccc3)c3c2[C@H]1Cc1ccc(O)c(O)c1-3 displays Ratio EC50 of 1.6

According to the records, this molecule CN1CCc2ccc(Cc3ccc(O)cc3)c3c2[C@H]1Cc1ccc(O)c(O)c1-3 displays Ratio EC50 of 3.9

According to the records, this molecule Cc1ccc2c3c1-c1c(ccc(O)c1O)C[C@H]3N(C)CC2 displays Ratio EC50 of 4.3

According to the records, this molecule CN1CCc2ccc(CO)c3c2[C@H]1Cc1ccc(O)c(O)c1-3 displays Ratio EC50 of 34.7
